- Tested on: LXF-289
- testDescription: relative viability (nuclei count vs DMSO), 5 days (fraction); higher = more cells survive
- recordedConditions: first compound 1.265 µM
readout: relative viability
One number for each entry.

Example results:
1. O=C(O)c1ccc(-c2c[nH]c3ncc(-c4ccccc4)cc23)cc1C1CCCC1 + Nc1nc2[nH]cc(CCc3ccc(C(=O)N[C@@H](CCC(=O)O)C(=O)O)cc3)c2c(=O)[nH]1 [Pemetrexed] (partner 0.2 µM) :: 0.627
2. O=C(O)c1ccc(-c2c[nH]c3ncc(-c4ccccc4)cc23)cc1C1CCCC1 + COc1cccc2cc(-c3nc([C@H]4CC[C@H](C(=O)O)CC4)n4ncnc(N)c34)[nH]c12 [OSI-027] (partner 0.5 µM) :: 0.581
3. O=C(O)c1ccc(-c2c[nH]c3ncc(-c4ccccc4)cc23)cc1C1CCCC1 + C[C@@H](Oc1cc(-c2cnn(C3CCNCC3)c2)cnc1N)c1c(Cl)ccc(F)c1Cl [Crizotinib] (partner 1 µM) :: 0.285

For every item below, please supply its relative viability.
1. O=C(O)c1ccc(-c2c[nH]c3ncc(-c4ccccc4)cc23)cc1C1CCCC1 + CCNC(=O)c1noc(-c2cc(C(C)C)c(O)cc2O)c1-c1ccc(CN2CCOCC2)cc1 [Luminespib] (partner 0.01 µM)
2. O=C(O)c1ccc(-c2c[nH]c3ncc(-c4ccccc4)cc23)cc1C1CCCC1 + CC(=O)c1c(C)c2cnc(Nc3ccc(N4CCNCC4)cn3)nc2n(C2CCCC2)c1=O [Palbociclib] (partner 0.5 µM)

Result:
1. 0.171
2. 0.521

====

- Test system: NCI-H1666
- testDescription: relative viability (nuclei count vs DMSO), 5 days (fraction); higher = more cells survive
- recordedConditions: first compound 8 µM
Give relative viability for every item shown.

1) C=C1C(=O)O[C@@H](CCCCCCCC)[C@@H]1C(=O)O [C-75] + C[C@]1(O)C[C@@H](c2nc(-c3ccc4ccc(-c5ccccc5)nc4c3)c3c(N)nccn32)C1 [Linsitinib] (partner 1 µM) :: 0.644

For every item below, please supply its relative viability.
1. C=C1C(=O)O[C@@H](CCCCCCCC)[C@@H]1C(=O)O [C-75] + Cc1cc(Nc2cc(N3CCN(C)CC3)nc(Sc3ccc(NC(=O)C4CC4)cc3)n2)n[nH]1 [Tozasertib] (partner 0.1 µM)
2. C=C1C(=O)O[C@@H](CCCCCCCC)[C@@H]1C(=O)O [C-75] + Nc1nc2[nH]cc(CCc3ccc(C(=O)N[C@@H](CCC(=O)O)C(=O)O)cc3)c2c(=O)[nH]1 [Pemetrexed] (partner 0.2 µM)

Result:
1. 0.499
2. 0.796

Request: Which measured relative viability value corresponds to C=C1C(=O)O[C@@H](CCCCCCCC)[C@@H]1C(=O)O [C-75] + Cc1nc(NC(=O)N2CCC[C@H]2C(N)=O)sc1-c1ccnc(C(C)(C)C(F)(F)F)c1 [Alpelisib] (partner 2 µM) ?
Result: 0.71

====

- System: EPLC-272H
- testDescription: relative viability (nuclei count vs DMSO), 5 days (fraction); higher = more cells survive
- recordedConditions: first compound 0.05 µM
readout: relative viability
Numbers only.

1) CC1(C)CCC(c2ccc(Cl)cc2)=C(CN2CCN(c3ccc(C(=O)NS(=O)(=O)c4ccc(N[C@H](CCN5CCOCC5)CSc5ccccc5)c(S(=O)(=O)C(F)(F)F)c4)cc3)CC2)C1 [Navitoclax] + Cc1cc(Nc2cc(N3CCN(C)CC3)nc(Sc3ccc(NC(=O)C4CC4)cc3)n2)n[nH]1 [Tozasertib] (partner 0.1 µM) :: 0.313
2) CC1(C)CCC(c2ccc(Cl)cc2)=C(CN2CCN(c3ccc(C(=O)NS(=O)(=O)c4ccc(N[C@H](CCN5CCOCC5)CSc5ccccc5)c(S(=O)(=O)C(F)(F)F)c4)cc3)CC2)C1 [Navitoclax] + O=C(c1cc(Cc2n[nH]c(=O)c3ccccc23)ccc1F)N1CCN(C(=O)C2CC2)CC1 [Olaparib] (partner 8 µM) :: 0.644
3) CC1(C)CCC(c2ccc(Cl)cc2)=C(CN2CCN(c3ccc(C(=O)NS(=O)(=O)c4ccc(N[C@H](CCN5CCOCC5)CSc5ccccc5)c(S(=O)(=O)C(F)(F)F)c4)cc3)CC2)C1 [Navitoclax] + NC(=O)Nc1cc(-c2cccc(F)c2)sc1C(=O)N[C@H]1CCCNC1 [AZD7762] (partner 0.2 µM) :: 0.3
4) CC1(C)CCC(c2ccc(Cl)cc2)=C(CN2CCN(c3ccc(C(=O)NS(=O)(=O)c4ccc(N[C@H](CCN5CCOCC5)CSc5ccccc5)c(S(=O)(=O)C(F)(F)F)c4)cc3)CC2)C1 [Navitoclax] + CC(=O)c1c(C)c2cnc(Nc3ccc(N4CCNCC4)cn3)nc2n(C2CCCC2)c1=O [Palbociclib] (partner 0.5 µM) :: 0.324

# next compound below
Request: Any idea what relative viability came out for CC1(C)CCC(c2ccc(Cl)cc2)=C(CN2CCN(c3ccc(C(=O)NS(=O)(=O)c4ccc(N[C@H](CCN5CCOCC5)CSc5ccccc5)c(S(=O)(=O)C(F)(F)F)c4)cc3)CC2)C1 [Navitoclax] + N=C(N)NC(=N)NCCc1ccccc1 [Phenformin] (partner 250 µM) on EPLC-272H?
Result: 0.324
